Molecular target: OCT2 (Homo sapiens, UniProt O15244)
Sequence (O15244 whole entry): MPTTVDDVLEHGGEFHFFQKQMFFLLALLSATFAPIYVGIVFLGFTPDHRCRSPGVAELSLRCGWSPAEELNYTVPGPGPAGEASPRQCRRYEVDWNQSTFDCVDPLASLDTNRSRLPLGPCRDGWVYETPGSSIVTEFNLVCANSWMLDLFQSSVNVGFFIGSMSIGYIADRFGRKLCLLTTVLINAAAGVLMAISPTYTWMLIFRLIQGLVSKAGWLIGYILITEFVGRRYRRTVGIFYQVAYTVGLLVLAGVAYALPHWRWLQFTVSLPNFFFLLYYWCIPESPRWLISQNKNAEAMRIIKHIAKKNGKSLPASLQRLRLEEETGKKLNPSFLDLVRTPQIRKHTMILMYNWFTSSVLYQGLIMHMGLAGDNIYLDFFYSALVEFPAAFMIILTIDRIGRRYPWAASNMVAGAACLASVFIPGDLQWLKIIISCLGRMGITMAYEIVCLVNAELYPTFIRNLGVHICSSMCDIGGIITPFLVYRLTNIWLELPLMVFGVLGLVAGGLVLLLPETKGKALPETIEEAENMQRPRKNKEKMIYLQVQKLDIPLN
Assay: in vitro
Details: human, pH 7.3
Could you please report measured % Inhibition of OCT2-dependent MF uptake at 200 µM (mean ± SEM) for the items listed next?
Reply with the value as a number alone.

Check the records and state % Inhibition of OCT2-dependent MF uptake at 200 µM (mean ± SEM) for Cc1cccc(C)c1NC(=O)c1cc(S(N)(=O)=O)c(Cl)cc1O [Xipamide]
9.4

For the molecule CCN(CC)CCNC(=O)c1cc(Cl)c(N)cc1OC [Metoclopramide] , give its reported % Inhibition of OCT2-dependent MF uptake at 200 µM (mean ± SEM).
93.9

Supply recorded % Inhibition of OCT2-dependent MF uptake at 200 µM (mean ± SEM) for OCCN1CCN(CCCN2c3ccccc3Sc3ccc(C(F)(F)F)cc32)CC1 here.
99.3

Item C#C[C@]1(O)CC[C@H]2[C@@H]3CCC4=CC(=O)CC[C@@H]4[C@H]3CC[C@@]21C : provide % Inhibition of OCT2-dependent MF uptake at 200 µM (mean ± SEM)
87.7

Please report the measured % Inhibition of OCT2-dependent MF uptake at 200 µM (mean ± SEM) for COCCc1ccc(OCC(O)CNC(C)C)cc1 (stereo not drawn)
88.2

Specify reported % Inhibition of OCT2-dependent MF uptake at 200 µM (mean ± SEM) for the molecule shown: NC(=O)C1(N2CCCCC2)CCN(CCCC(=O)c2ccc(F)cc2)CC1
78.1

Complete the entry with % Inhibition of OCT2-dependent MF uptake at 200 µM (mean ± SEM) for CC12CC3CC(C)(C1)CC(N)(C3)C2 [Memantine]
93.9

Give % Inhibition of OCT2-dependent MF uptake at 200 µM (mean ± SEM) for CC(=O)S[C@@H]1CC2=CC(=O)CC[C@]2(C)[C@H]2CC[C@@]3(C)[C@@H](CC[C@@]34CCC(=O)O4)[C@H]12
98.4

* * *

Target: OCT2 (Homo sapiens)
Assay: in vitro
Conditions: human, pH 7.3
assay_readout: % Inhibition of OCT2-dependent MF uptake at 20 µM (mean ± SEM)
Form rule: numeric answer, no unit written next to it.

Read off the recorded % Inhibition of OCT2-dependent MF uptake at 20 µM (mean ± SEM) for NCC1(CC(=O)O)CCCCC1
9.1

Report % Inhibition of OCT2-dependent MF uptake at 20 µM (mean ± SEM) for Cc1cccc(C)c1NC(=O)c1cc(S(N)(=O)=O)c(Cl)cc1O [Xipamide]
-22.3

Give the measured % Inhibition of OCT2-dependent MF uptake at 20 µM (mean ± SEM) for C[C@]12C=CC(=O)C=C1CC[C@@H]1[C@@H]2[C@@H](O)C[C@@]2(C)[C@H]1CC[C@]2(O)C(=O)CO
66.0

Identify % Inhibition of OCT2-dependent MF uptake at 20 µM (mean ± SEM) associated with the molecule CCCCC1=NC2(CCCC2)C(=O)N1Cc1ccc(-c2ccccc2-c2nnn[nH]2)cc1
-16.2

Please report % Inhibition of OCT2-dependent MF uptake at 20 µM (mean ± SEM) for the following molecule: COC(=O)C(c1ccccc1)C1CCCCN1 (centres unmarked) [Methylphenidate]
17.9

Consider the molecule COC(=O)[C@H](c1ccccc1Cl)N1CCc2sccc2C1 and give its recorded % Inhibition of OCT2-dependent MF uptake at 20 µM (mean ± SEM).
70.0

Please give measured % Inhibition of OCT2-dependent MF uptake at 20 µM (mean ± SEM) of the following entry: Cc1cccc(Nc2ccncc2S(=O)(=O)NC(=O)NC(C)C)c1 [Torasemide]
-33.2

In one line, give reported % Inhibition of OCT2-dependent MF uptake at 20 µM (mean ± SEM) of the entry CCOC(=O)C1=C(C)NC(C)=C(C(=O)OC)C1c1cccc(Cl)c1Cl (centres unmarked) .
4.9

Find the measured % Inhibition of OCT2-dependent MF uptake at 20 µM (mean ± SEM) of Cc1ncsc1CCCl and report it.
-9.2

Entry CC(CN1c2ccccc2Sc2ccccc21)N(C)C (centres unmarked) needs its % Inhibition of OCT2-dependent MF uptake at 20 µM (mean ± SEM) filled in; supply it.
83.7

Given CN1C(=O)CN=C(c2ccccc2F)c2cc([N+](=O)[O-])ccc21 , respond with its % Inhibition of OCT2-dependent MF uptake at 20 µM (mean ± SEM).
74.1

Report % Inhibition of OCT2-dependent MF uptake at 20 µM (mean ± SEM) for CCCCc1nc(Cl)c(CO)n1Cc1ccc(-c2ccccc2-c2nn[nH]n2)cc1
-9.3

Entry OC(CNCC(O)C1CCc2cc(F)ccc2O1)C1CCc2cc(F)ccc2O1 (centres unmarked) needs its % Inhibition of OCT2-dependent MF uptake at 20 µM (mean ± SEM) filled in; supply it.
61.4

// Input: C=C1CC[C@H](O)C/C1=C/C=C1\CCC[C@]2(C)[C@@H]([C@H](C)CCCC(C)C)CC[C@@H]12 . Output its % Inhibition of OCT2-dependent MF uptake at 20 µM (mean ± SEM) only.
2.8
